# System: CCFT-CEM cells
# experimental.protocol: Cytotoxicity against CCFT-CEM cells
# experimental.context: read-out: IC50, cytotoxicity against CCFT-CEM cells
endpoint.label: pIC50
In simple prose, pIC50 is minus the logarithm base ten of a concentration in moles per litre.

Report measured pIC50; entry is CO[C@H]1C[C@H](C)Cc2cc(O)cc(c2)NC(=O)/C=C/CC[C@H](OC)[C@@H](OC(N)=O)/C(C)=C/[C@H](C)[C@H]1O
5.60

* * *

Consider the following Kd values measured on Hsp90 (Homo sapiens).
Reply with just the number (in nM).

Here is how some compounds turned out for Kd.
COC1CCC=CC(=O)Nc2cc(c(CN(C)CCN(C)C)c(O)c2Br)CC(C)CC(OC)C(O)C(C)C=C(C)C1OC(N)=O (centres unmarked) : 31000
COC(=O)COc1cc2cc(c1)NC(=O)C=CCCC(OC)C(OC(N)=O)C(C)=CC(C)C(O)C(OC)CC(C)C2 (centres unmarked) : 360
COc1cc2cc(c1)NC(=O)C=CCCC(OC)C(OC(N)=O)C(C)=CC(C)C(O)C(OC)CC(C)C2 (centres unmarked) : 510
CO[C@H]1C[C@H](C)Cc2cc(O)cc(c2)NC(=O)/C=C/CC[C@H](OC)[C@@H](OC(N)=O)/C(C)=C/[C@H](C)[C@H]1O : 17
CO[C@H]1C[C@H](C)Cc2cc(O)cc(c2)NC(=O)CC(O)CC[C@H](OC)[C@@H](OC(N)=O)/C(C)=C/[C@H](C)[C@H]1O (some centres unmarked) : 1000

Report measured Kd; entry is COC1CCC=CC(=O)Nc2cc(cc(O)c2Br)CC(C)CC(OC)C(O)C(C)C=C(C)C1OC(N)=O (centres unmarked)
1700

Report measured Kd; entry is COC1CCC=CC(=O)Nc2cc(O)c(Br)c(c2)CC(C)CC(OC)C(O)C(C)C=C(C)C1OC(N)=O (centres unmarked)
140

Report measured Kd; entry is COC1CCC=CC(=O)Nc2cc(cc(OCC(N)=O)c2)CC(C)CC(OC)C(O)C(C)C=C(C)C1OC(N)=O (centres unmarked)
440

* * *

IC50 listing for selected compounds.
# Tested on: SKBr3 cells
# experimental.protocol: Cytotoxicity against SKBr3 cells (CellTiter-Glo, 72 h)
# Type: cell-based
# experimental.context: Homo sapiens, SK-BR-3, 72 h, read-out: Cytotoxicity against SKBr3 Cells (IC50, μM)

Here is how some compounds turned out for IC50.
COC1CCC=CC(=O)Nc2cc(cc(OCC(=O)O)c2)CC(C)CC(OC)C(O)C(C)C=C(C)C1OC(N)=O (stereo not shown) [Compound 1-I] : > 5 µM
COC1=C2C[C@@H](C)C[C@H](OC)[C@H](O)[C@@H](C)/C=C(\C)[C@H](OC(N)=O)[C@@H](OC)/C=C\C=C(/C)C(=O)NC(=CC1=O)C2=O [Geldanamycin, reference compound] : 0.023 µM
C=CCOc1cc2cc(c1)NC(=O)C=CCCC(OC)C(OC(N)=O)C(C)=CC(C)C(O)C(OC)CC(C)C2 (stereo not shown) [Compound 1-B] : > 5 µM
CO[C@H]1C[C@H](C)Cc2cc(O)cc(c2)NC(=O)/C=C/CC[C@H](OC)[C@@H](OC(N)=O)/C(C)=C/[C@H](C)[C@H]1O [Compound 1-A] : 0.85 µM
CO[C@H]1C[C@H](C)Cc2cc(O)cc(c2)NC(=O)CC(O)CC[C@H](OC)[C@@H](OC(N)=O)/C(C)=C/[C@H](C)[C@H]1O (stereo partly shown) [III] : > 5 µM
COc1cc2cc(c1)NC(=O)C=CCCC(OC)C(OC(N)=O)C(C)=CC(C)C(O)C(OC)CC(C)C2 (stereo not shown) [Compound 1-D] : 6 µM
COC1CCC=CC(=O)Nc2cc(c(CN(C)CCN(C)C)c(O)c2Br)CC(C)CC(OC)C(O)C(C)C=C(C)C1OC(N)=O (stereo not shown) [Compound 1-N] : > 5 µM
COC1CCC=CC(=O)Nc2cc(cc(OCC(N)=O)c2)CC(C)CC(OC)C(O)C(C)C=C(C)C1OC(N)=O (stereo not shown) [Compound 1-E] : > 5 µM
COC1CCC=CC(=O)Nc2cc(c(Br)c(O)c2Br)CC(C)CC(OC)C(O)C(C)C=C(C)C1OC(N)=O (stereo not shown) [Compound 1-M] : > 5 µM
COC1CCC=CC(=O)Nc2cc(cc(O)c2Br)CC(C)CC(OC)C(O)C(C)C=C(C)C1OC(N)=O (stereo not shown) [Compound 1-J] : > 5 µM

Retrieve IC50 on SKBr3 cells; query COC(=O)COc1cc2cc(c1)NC(=O)C=CCCC(OC)C(OC(N)=O)C(C)=CC(C)C(O)C(OC)CC(C)C2 (stereo not shown) [Compound 1-H]
> 5 µM

Retrieve IC50 on SKBr3 cells; query CO[C@H]1C[C@H](C)Cc2cc(O)cc(c2)NC(=O)CC(O)CC[C@H](OC)[C@@H](O)/C(C)=C/[C@H](C)[C@H]1O (stereo partly shown) [IV]
> 5 µM

Retrieve IC50 on SKBr3 cells; query COC1CCC=CC(=O)Nc2cc(cc(OCCN(C)C)c2)CC(C)CC(OC)C(O)C(C)C=C(C)C1OC(N)=O (stereo not shown) [Compound 1-C]
> 10 µM

* * *

# Test system: SKBr3 cells
# experimental.protocol: Cytotoxicity against SKBr3 cells (CellTiter-Glo, 72 h)
# Format: cell-based
# experimental.context: Homo sapiens, SK-BR-3, 72 h, read-out: Cytotoxicity against SKBr3 Cells (IC50, μM)
endpoint.label: IC50 (µM)
Reply with just the number (in µM).

COC1CCC=CC(=O)Nc2cc(O)c(Br)c(c2)CC(C)CC(OC)C(O)C(C)C=C(C)C1OC(N)=O (stereo not drawn) : 0.8

Continue with the molecule presented below.
Report measured IC50; entry is COC1CCC=CC(=O)Nc2cc(cc(O)c2CN(C)C)CC(C)CC(OC)C(O)C(C)C=C(C)C1OC(N)=O (stereo not drawn)
0.63
